Reference source: ChEMBL document CHEMBL2029293

- ASSAYED TARGET: Thymidine phosphorylase (Escherichia coli K-12)
- MEASUREMENT DESCRIPTION: Inhibition of Escherichia coli thymidine phosphorylase at 100 uM incubated for 20 mins at room temperature followed by 5 mins incubation at 90 degC by HPLC analysis
# cutoff 20% applies to inhibition; >= gives true, < gives false

Prompt: Is reported inhibition greater than or equal to 20% here: Cc1cn(CCCCCCCCC(F)(F)P(=O)(O)O)c(=O)[nH]c1=O
Completion: true

Prompt: How about this compound: Cc1cn(CCCSCCCCC(F)(F)P(=O)(O)O)c(=O)[nH]c1=O
Completion: true

Prompt: Entry Cc1cn(CCCC(F)(F)P(=O)(O)O)c(=O)[nH]c1=O please
Completion: false

Prompt: What about Cc1cn(CCCCP(=O)(O)O)c(=O)[nH]c1=O ?
Completion: false

Prompt: Next up: Cc1cn(CCCCCCSCCCCC(F)(F)P(=O)(O)O)c(=O)[nH]c1=O
Completion: true

Prompt: How about O=P(O)(O)C(F)(F)CCCn1cc(Cn2cnc3c(O)ncnc32)nn1 ?
Completion: true

Prompt: Next compound up: O=c1ccn(CCCCC(F)(F)P(=O)(O)O)c(=O)[nH]1
Completion: false

Prompt: Also, Nc1nc(O)c2ncn(CCCCC(F)(F)P(=O)(O)O)c2n1 please.
Completion: true

Prompt: Note, next up: Nc1nc(O)c2ncn(CCCC(F)(F)P(=O)(O)O)c2n1
Completion: false

Prompt: Next entry: Nc1[nH]c(=O)[nH]c(=O)c1Br
Completion: true

Prompt: One more compound: Cc1cn(CCCCSCCCCC(F)(F)P(=O)(O)O)c(=O)[nH]c1=O
Completion: true

Prompt: Same for Cc1cn(CCCCCCCCP(=O)(O)O)c(=O)[nH]c1=O
Completion: false

Prompt: // same read-out, input: Cc1cn(CCSCCCCC(F)(F)P(=O)(O)O)c(=O)[nH]c1=O
Completion: false

Prompt: Another compound to check: Cc1cn(Cc2cn(CC(F)(F)P(=O)(O)O)nn2)c(=O)[nH]c1=O
Completion: false

Prompt: Repeat for the following compound: O=P(O)(O)C(F)(F)CCCCn1cnc2c(O)ncnc21
Completion: false

Prompt: Next compound: Cc1cn(CCCCCCCCCCCC(F)(F)P(=O)(O)O)c(=O)[nH]c1=O
Completion: true

Prompt: Follow-up entry: Cc1cn(CC(I)CC(F)(F)P(=O)(O)O)c(=O)[nH]c1=O (stereo unspecified)
Completion: true

Prompt: Cc1cn(CCCCC(F)(F)P(=O)(O)O)c(=O)[nH]c1=O , same question.
Completion: false

Prompt: Please give the result for O=c1ccn(Cc2cn(CCCCC(F)(F)P(=O)(O)O)nn2)c(=O)[nH]1 too.
Completion: true

Prompt: Record: Cc1cn(CCCCCCCCCC(F)(F)P(=O)(O)O)c(=O)[nH]c1=O
Completion: true

Prompt: Request: Nc1nc(O)c2ncn(Cc3cn(CCCCC(F)(F)P(=O)(O)O)nn3)c2n1
Completion: true

Prompt: Next entry: O=P(O)(O)C(F)(F)CCCCn1cc(Cn2cnc3c(O)ncnc32)nn1
Completion: true

Prompt: Now give it for Cc1cn(Cc2cn(CCCC(F)(F)P(=O)(O)O)nn2)c(=O)[nH]c1=O too.
Completion: true

Prompt: Another compound to look at: Cc1cn(Cc2cn(CCCCC(F)(F)P(=O)(O)O)nn2)c(=O)[nH]c1=O
Completion: true

Prompt: Param item: Nc1c(Br)c(=O)[nH]c(=O)n1CCCCCCCCP(=O)(O)O
Completion: true
